test: In vivo pharmacokinetic study, plasma and brain levels by LC-MS; set-up: species or system mice; settings: male, C57BL/6, mouse, ip; mice, 1 mg/kg i.p., cassette dosing, plasma; read-out: Cmax
OBSERVATION_TYPE: Cmax (ng/mL)
All answers are understood in ng/mL, so give the number only.

Q: Give the measured Cmax for CN1CCN(C2=Nc3ccccc3Oc3ccc(Cl)cc32)CC1 [Loxapine, reference compound]
Result: 41.6

====

experiment: In vivo pharmacokinetic study, plasma and brain levels by LC-MS; design: species or system mice; conditions: male, C57BL/6, mouse, ip; mice, 1 mg/kg i.p., cassette dosing, plasma; read-out: tmax
OBSERVATION_TYPE: Tmax

Q: Give the measured Tmax for CN1CCN(C2=Nc3ccccc3Oc3ccc(Cl)cc32)CC1 [Loxapine, reference compound]
Result: 15 min

====

test: In vivo pharmacokinetic study, plasma and brain levels by LC-MS; set-up: species or system mice; details: male, C57BL/6, mouse, ip; mice, 1 mg/kg i.p., cassette dosing, plasma; read-out: AUC(0-tz)
OBSERVATION_TYPE: AUC(0-t) (ng·h/mL)
All answers are understood in ng·h/mL, so give the number only.

Q: Give the measured AUC(0-t) for CN1CCN(C2=Nc3ccccc3Oc3ccc(Cl)cc32)CC1 [Loxapine, reference compound]
Result: 105

====

target: human Slack (Homo sapiens); construct: host or cells: HEK293; assay: FluxOR potassium ion channel assay in HEK-Slack cells; assay type: cell-based; conditions: read-out: FluxOR assay EMAX (% relative to Loxapine); Na+ free buffer with 2 mM Ca2+, 2 mM Mg2+, 0.03% DMSO; mean with 95% confidence interval
OBSERVATION_TYPE: Emax (%)
All answers are understood in %, so give the number only.

{"MOLECULE": "OCCN1CCN(C2=Nc3cc(F)ccc3Oc3ccc(C(F)(F)F)cc32)CC1 [Compound 21]", "Emax, %": 264}
{"MOLECULE": "CN1CCN(C2=Nc3ccccc3Oc3ccc(Cl)cc32)CC1 [Loxapine, reference compound]", "Emax, %": 100}
{"MOLECULE": "O=c1nc(CN2CCN(C3=Nc4ccccc4Oc4ccc(Cl)cc43)CC2)[nH][nH]1 [Compound 10]", "Emax, %": 120}
{"MOLECULE": "CN1CCN(C2=Nc3ccccc3Oc3ccc(C(F)(F)F)cc32)CC1 [Compound 2]", "Emax, %": 114}
{"MOLECULE": "OCCOCCN1CCN(C2=Nc3ccccc3Sc3ccc(Cl)cc32)CC1 [Compound 7]", "Emax, %": 87.4}
{"MOLECULE": "O=c1nc(CN2CCN(C3=Nc4ccccc4Oc4ccc(C(F)(F)F)cc43)CC2)[nH][nH]1 [Compound 11]", "Emax, %": 199}
{"MOLECULE": "O=c1nc(CN2CCN(C3=Nc4cc(F)ccc4Oc4ccc(Cl)cc43)CC2)[nH][nH]1 [Compound 19]", "Emax, %": 117}

Okay, next one:
Q: State the measured Emax (human Slack (Homo sapiens)) of CN1CCCN(C2=Nc3ccccc3Oc3ccc(C(F)(F)F)cc32)CC1 [Compound 3]
Result: 63.1

====

assay: In vivo pharmacokinetic study, plasma and brain levels by LC-MS; design: species or system mice; settings: male, C57BL/6, mouse, in vivo, ip, 1 mg/kg
OBSERVATION_TYPE: tz

{"GIVEN_SMILES": "CN1CCCN(C2=Nc3ccccc3Oc3ccc(C(F)(F)F)cc32)CC1", "OBSERVED_VALUE": "8 h"}
{"GIVEN_SMILES": "OCCN1CCN(C2=Nc3ccccc3Oc3ccc(Cl)cc32)CC1", "OBSERVED_VALUE": "8 h"}
{"GIVEN_SMILES": "CN1CCN(C2=Nc3cc(F)ccc3Oc3ccc(C(F)(F)F)cc32)CC1", "OBSERVED_VALUE": "8 h"}

Okay, next one:
Q: Give the measured tz for OCCOCCN1CCN(C2=Nc3ccccc3Sc3ccc(Cl)cc32)CC1
Result: 8 h

====

assay: In vivo pharmacokinetic study, plasma and brain levels by LC-MS; set-up: species or system mice; conditions: male, C57BL/6, mouse, in vivo, ip, 1 mg/kg
OBSERVATION_TYPE: Cz (ng/mL)
All answers are understood in ng/mL, so give the number only.

{"GIVEN_SMILES": "O=C(O)COCCN1CCN(C2=Nc3ccccc3Oc3ccc(C(F)(F)F)cc32)CC1", "UNIT_NAME": "ng/mL", "OBSERVED_VALUE": 31.4}
{"GIVEN_SMILES": "O=C(O)COCCN1CCCN(C2=Nc3ccccc3Oc3ccc(C(F)(F)F)cc32)CC1", "UNIT_NAME": "ng/mL", "OBSERVED_VALUE": 0.3}
{"GIVEN_SMILES": "OCCN1CCN(C2=Nc3ccccc3Oc3ccc(Cl)cc32)CC1", "UNIT_NAME": "ng/mL", "OBSERVED_VALUE": 0.4}
{"GIVEN_SMILES": "CN1CCCN(C2=Nc3ccccc3Oc3ccc(C(F)(F)F)cc32)CC1", "UNIT_NAME": "ng/mL", "OBSERVED_VALUE": 1.0}

Q: Give the measured Cz for OCCOCCN1CCN(C2=Nc3ccccc3Sc3ccc(Cl)cc32)CC1
Result: 0.3

Q: Give the measured Cz for O=C(O)COCCN1CCN(C2=Nc3ccccc3Oc3ccc(Cl)cc32)CC1
Result: 13.3

Q: Give the measured Cz for CN1CCN(C2=Nc3ccccc3Oc3ccc(C(F)(F)F)cc32)CC1
Result: 3.3

Q: Give the measured Cz for CN1CCN(C2=Nc3cc(F)ccc3Oc3ccc(C(F)(F)F)cc32)CC1
Result: 4.1

====

Reported values of EC50 for individual entries
Target: human Slack (Homo sapiens, UniProt Q5JUK3)
Construct: host or cells: HEK293
Sequence (Q5JUK3 1-1230): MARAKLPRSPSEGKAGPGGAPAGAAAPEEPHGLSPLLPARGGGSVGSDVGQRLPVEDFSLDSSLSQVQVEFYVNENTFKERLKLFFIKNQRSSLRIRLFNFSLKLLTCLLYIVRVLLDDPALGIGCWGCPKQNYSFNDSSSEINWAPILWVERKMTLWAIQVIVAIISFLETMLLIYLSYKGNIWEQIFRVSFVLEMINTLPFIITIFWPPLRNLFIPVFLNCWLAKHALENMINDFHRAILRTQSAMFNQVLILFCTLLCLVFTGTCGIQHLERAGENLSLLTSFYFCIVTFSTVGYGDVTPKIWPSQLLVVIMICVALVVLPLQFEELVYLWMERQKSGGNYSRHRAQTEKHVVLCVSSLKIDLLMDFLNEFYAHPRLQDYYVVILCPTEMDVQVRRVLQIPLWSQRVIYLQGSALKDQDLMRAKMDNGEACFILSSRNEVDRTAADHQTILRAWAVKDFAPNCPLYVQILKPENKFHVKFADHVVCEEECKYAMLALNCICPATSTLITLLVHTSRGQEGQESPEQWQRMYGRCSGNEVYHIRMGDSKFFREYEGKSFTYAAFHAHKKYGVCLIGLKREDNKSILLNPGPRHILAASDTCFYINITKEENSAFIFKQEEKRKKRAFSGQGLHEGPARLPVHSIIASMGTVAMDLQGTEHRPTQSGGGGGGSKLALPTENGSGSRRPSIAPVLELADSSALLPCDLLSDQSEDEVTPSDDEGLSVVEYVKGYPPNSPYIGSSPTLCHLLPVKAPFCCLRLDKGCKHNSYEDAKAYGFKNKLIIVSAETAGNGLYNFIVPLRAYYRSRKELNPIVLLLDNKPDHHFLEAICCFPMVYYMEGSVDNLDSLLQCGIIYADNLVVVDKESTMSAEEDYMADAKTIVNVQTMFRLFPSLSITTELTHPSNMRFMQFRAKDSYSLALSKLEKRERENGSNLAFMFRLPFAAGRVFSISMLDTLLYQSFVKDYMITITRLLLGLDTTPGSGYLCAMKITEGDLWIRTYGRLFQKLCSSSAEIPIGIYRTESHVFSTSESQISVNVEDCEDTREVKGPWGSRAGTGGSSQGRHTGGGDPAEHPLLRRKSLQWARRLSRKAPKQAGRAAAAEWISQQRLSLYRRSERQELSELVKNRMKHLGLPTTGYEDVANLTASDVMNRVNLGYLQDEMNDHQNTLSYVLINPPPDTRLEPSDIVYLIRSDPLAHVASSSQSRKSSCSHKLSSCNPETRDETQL
Experiment: FluxOR potassium ion channel assay in HEK-Slack cells
Format: cell-based
Details: Na+ free buffer with 2 mM Ca2+, 2 mM Mg2+, 0.03% DMSO; mean with 95% confidence interval; read-out: FluxOR assay EC50
All answers are understood in µM, so give the number only.

{"GIVEN_SMILES": "O=c1nc(CN2CCCN(C3=Nc4ccccc4Oc4ccc(C(F)(F)F)cc43)CC2)[nH][nH]1", "SYSTEM_UNDER_TEST": "human Slack (Homo sapiens, UniProt Q5JUK3)", "OBSERVATION_TYPE": "EC50", "OBSERVED_VALUE": 26.2}
{"GIVEN_SMILES": "O=C(O)COCCN1CCN(C2=Nc3ccccc3Oc3ccc(Cl)cc32)CC1", "SYSTEM_UNDER_TEST": "human Slack (Homo sapiens, UniProt Q5JUK3)", "OBSERVATION_TYPE": "EC50", "OBSERVED_VALUE": 30.3}
{"GIVEN_SMILES": "O=c1nc(CN2CCN(C3=Nc4cc(F)ccc4Oc4ccc(Cl)cc43)CC2)[nH][nH]1", "SYSTEM_UNDER_TEST": "human Slack (Homo sapiens, UniProt Q5JUK3)", "OBSERVATION_TYPE": "EC50", "OBSERVED_VALUE": 21.1}
{"GIVEN_SMILES": "OCCN1CCN(C2=Nc3cc(F)ccc3Oc3ccc(C(F)(F)F)cc32)CC1", "SYSTEM_UNDER_TEST": "human Slack (Homo sapiens, UniProt Q5JUK3)", "OBSERVATION_TYPE": "EC50", "OBSERVED_VALUE": 10.5}
{"GIVEN_SMILES": "O=c1nc(CN2CCN(C3=Nc4cc(F)ccc4Oc4ccc(C(F)(F)F)cc43)CC2)[nH][nH]1", "SYSTEM_UNDER_TEST": "human Slack (Homo sapiens, UniProt Q5JUK3)", "OBSERVATION_TYPE": "EC50", "OBSERVED_VALUE": 11.2}

Q: Give the measured EC50 for OCCOCCN1CCN(C2=Nc3ccccc3Sc3ccc(Cl)cc32)CC1
Result: 30

Q: Give the measured EC50 for CN1CCCN(C2=Nc3ccccc3Oc3ccc(C(F)(F)F)cc32)CC1
Result: 3.2
